Target: serotonin transporter (SERT) (Homo sapiens, UniProt P31645)
Construct: expressed in transfected cells; host or cells: CHO cells
Sequence (P31645 whole entry): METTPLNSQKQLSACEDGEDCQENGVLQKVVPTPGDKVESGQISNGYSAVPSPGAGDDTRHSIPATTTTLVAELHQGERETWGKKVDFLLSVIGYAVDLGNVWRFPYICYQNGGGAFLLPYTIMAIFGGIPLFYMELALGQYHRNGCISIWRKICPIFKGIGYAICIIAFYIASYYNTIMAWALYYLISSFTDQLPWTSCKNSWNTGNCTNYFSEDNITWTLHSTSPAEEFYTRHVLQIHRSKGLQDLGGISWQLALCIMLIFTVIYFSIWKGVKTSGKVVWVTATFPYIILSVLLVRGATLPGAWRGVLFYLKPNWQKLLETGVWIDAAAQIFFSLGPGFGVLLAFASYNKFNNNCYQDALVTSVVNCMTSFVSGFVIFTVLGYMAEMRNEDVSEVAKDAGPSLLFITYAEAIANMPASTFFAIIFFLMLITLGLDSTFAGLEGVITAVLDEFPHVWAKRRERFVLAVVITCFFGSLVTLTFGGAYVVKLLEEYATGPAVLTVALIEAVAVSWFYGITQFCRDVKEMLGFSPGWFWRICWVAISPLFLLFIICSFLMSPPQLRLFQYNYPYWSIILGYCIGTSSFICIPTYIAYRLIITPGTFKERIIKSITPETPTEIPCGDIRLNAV
Assay: Radioligand binding assay, serotonin transporter (SERT)
Conditions: binding assay, test compound 1×10^−6 M
Text: The specific ligand binding to the receptors is defined as the difference between the total binding and the non-specific binding determined in the presence of the excess of unlabelled ligand. The results are expressed as a percent of control specific binding ((measured specific binding/control specific binding)×100) and as a percent inhibition of control specific binding (100−((measured specific binding/control specific binding)×100)) obtained in the presence of the test compounds. […]
recorded.metric: inhibition at 1 µM (%)

> print(dat)
                                   compound                              study.system     recorded.metric  unit.descriptor  reading
1  Cc1c(S(=O)(=O)NC2CCN(CCCc3noc4cc(F)ccc34)C2)sc2ccc(F)cc12 (stereo not shown) [Compound 28]  serotonin transporter (SERT) (Homo sapiens, UniProt P31645)  inhibition at 1 µM                %       54
2  O=S(=O)(NCC1CCN(CCOc2nsc3ccccc23)C1)c1ccc2ccccc2c1 (stereo not shown) [Compound 44]  serotonin transporter (SERT) (Homo sapiens, UniProt P31645)  inhibition at 1 µM                %       25
3  O=S(=O)(N[C@@H]1CCN(CCCc2noc3cc(F)ccc23)C1)c1ccc2ccccc2c1 [Compound 206]  serotonin transporter (SERT) (Homo sapiens, UniProt P31645)  inhibition at 1 µM                %       62
4  O=S(=O)(NCC1CN(CCOc2cccc3c2OCCO3)C1)c1ccc(Cl)c(Cl)c1 [Compound 183]  serotonin transporter (SERT) (Homo sapiens, UniProt P31645)  inhibition at 1 µM                %       48

---

System: σ receptors
Experiment: Radioligand binding assay, σ receptors
Conditions: rat cerebral cortex, [3H]DTG 8 nM
recorded.metric: σ [%] (%)

> print(dat)
                                   compound  reading
1  O=S(=O)(NC1CCN(CCCc2noc3cc(F)ccc23)C1)c1csc2ccccc12 (stereo not shown) [Compound 26]       80
2  CC1(C)Cc2cccc(OCCN3CCC(NS(=O)(=O)c4cccc(O)c4)CC3)c2O1 [Compound 109]       39
3  Cc1cc(S(=O)(=O)NCC2CCN(CCOc3cccc4c3OCCO4)C2)c(C)s1 (stereo not shown) [Compound 312]       92
4  O=S(=O)(NC1CN(CCOc2cccc3c2OCCO3)C1)c1cccc(F)c1 [Compound 89]       24

---

Biological target: dopaminergic receptors D2 (Homo sapiens)
Sequence (P14416 whole entry): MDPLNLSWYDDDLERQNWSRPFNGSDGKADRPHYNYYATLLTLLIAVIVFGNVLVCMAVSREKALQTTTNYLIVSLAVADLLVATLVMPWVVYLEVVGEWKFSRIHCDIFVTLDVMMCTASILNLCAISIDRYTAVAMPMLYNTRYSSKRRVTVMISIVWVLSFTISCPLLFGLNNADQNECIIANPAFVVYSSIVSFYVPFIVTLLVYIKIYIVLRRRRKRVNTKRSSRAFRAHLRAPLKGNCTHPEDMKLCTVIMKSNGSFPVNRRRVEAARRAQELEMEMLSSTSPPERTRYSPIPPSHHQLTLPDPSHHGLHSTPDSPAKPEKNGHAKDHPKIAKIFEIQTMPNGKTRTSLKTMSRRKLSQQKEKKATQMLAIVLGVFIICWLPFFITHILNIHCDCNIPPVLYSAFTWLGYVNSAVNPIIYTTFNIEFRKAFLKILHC
Assay: Radioligand binding assay, dopaminergic D2 receptors
Conditions: binding assay, test compound 1×10^−6 M
Text: The specific ligand binding to the receptors is defined as the difference between the total binding and the non-specific binding determined in the presence of the excess of unlabelled ligand. The results are expressed as a percent of control specific binding ((measured specific binding/control specific binding)×100) and as a percent inhibition of control specific binding (100−((measured specific binding/control specific binding)×100)) obtained in the presence of the test compounds. […]
Lab note: compare inhibition at 1 µM against 80%. Equal or greater, write MET. Smaller, write NOT MET.

> print(dat)
                                    compound  class.assignment
 1  Cc1c(S(=O)(=O)NCC2CN(CCOc3cccc4ccccc34)C2)sc2ccc(Cl)cc12 [Compound 167]           NOT MET
 2  O=S(=O)(NC1CCN(CCCc2c[nH]c3ccc(F)cc23)C1)c1ccc(F)cc1 (stereo not drawn) [Compound 75]               MET
 3  Cc1c(S(=O)(=O)N[C@H]2CCN(CCCc3noc4cc(F)ccc34)C2)sc2ccc(Cl)cc12 [Compound 205]               MET
 4  O=S(=O)(NCC1CCN(CCOc2cccc3ccccc23)C1)c1cc2ccccc2s1 (stereo not drawn) [Compound 268]           NOT MET
 5  O=S(=O)(N[C@H]1CCN(CCCc2noc3cc(F)ccc23)C1)c1ccc2cc(Cl)ccc2c1 [Compound 201]               MET
 6  O=S(=O)(NC1CCN(CCCc2c[nH]c3ccc(Cl)cc23)C1)c1cccc(F)c1 (stereo not drawn) [Compound 82]               MET
 7  Cc1ccc(S(=O)(=O)NC2CCN(CCCc3noc4cc(F)ccc34)C2)cc1 (stereo not drawn) [Compound 209]           NOT MET
 8  O=S(=O)(NCC1CCN(CCOc2cccc3c2OCCO3)C1)c1ccc(F)c(Cl)c1 (stereo not drawn) [Compound 317]           NOT MET
 9  N#Cc1ccc(S(=O)(=O)NC2CCN(CCCc3noc4cc(F)ccc34)C2)cc1 (stereo not drawn) [Compound 210]           NOT MET
10  O=S(=O)(NC1CCN(CCCc2noc3cc(F)ccc23)C1)c1ccc(F)cc1 (stereo not drawn) [Compound 8]           NOT MET
11  O=S(=O)(NC1CCN(CCCc2noc3cc(F)ccc23)C1)c1ccc2c(c1)OCO2 (stereo not drawn) [Compound 194]           NOT MET
12  Cc1cc(S(=O)(=O)NC2CCN(CCCc3noc4cc(F)ccc34)C2)c(C)s1 (stereo not drawn) [Compound 221]               MET
13  O=S(=O)(NCC1CCN(CCOc2cccc3ccccc23)C1)c1csc2ccccc12 (stereo not drawn) [Compound 276]           NOT MET
14  Cc1cccc(S(=O)(=O)NC2CCN(CCOc3cccc4[nH]ccc34)C2)c1 (stereo not drawn) [Compound 52]           NOT MET
15  O=S(=O)(NC1CCN(CCOc2cccc3[nH]ccc23)C1)c1ccc2ccccc2c1 (stereo not drawn) [Compound 54]               MET
16  O=S(=O)(NCC1CN(CCCc2c[nH]c3ccc(F)cc23)C1)c1ccc2ccccc2c1 [Compound 160]               MET
17  O=S(=O)(NCC1CN(CCOc2cccc3ccccc23)C1)c1ccc(F)c(F)c1 [Compound 173]           NOT MET
18  O=S(=O)(NC1CCN(CCCc2c[nH]c3ccc(Cl)cc23)C1)c1ccccc1 (stereo not drawn) [Compound 81]           NOT MET
19  O=S(=O)(NC1CCN(CCCc2noc3cc(F)ccc23)CC1)c1csc2ccccc12 [Compound 330]           NOT MET
20  O=S(=O)(NC1CCN(CCCc2noc3cc(F)ccc23)CC1)c1cccc2ccccc12 [Compound 34]           NOT MET
21  O=S(=O)(NCC1CCN(CCCc2noc3cc(F)ccc23)C1)c1ccc(F)c(Cl)c1 (stereo not drawn) [Compound 263]           NOT MET
22  O=S(=O)(NC1CCN(CCCc2c[nH]c3ccc(Cl)cc23)C1)c1ccc(F)cc1 (stereo not drawn) [Compound 83]           NOT MET
23  Cc1c(S(=O)(=O)NCC2CCN(CCOc3cccc4ccccc34)C2)sc2ccc(F)cc12 (stereo not drawn) [Compound 271]           NOT MET
24  O=S(=O)(NCC1CCN(CCOc2cccc3c2OCCO3)C1)c1ccc(C(F)(F)F)cc1 (stereo not drawn) [Compound 293]           NOT MET
25  O=S(=O)(N[C@H]1CCN(CCCc2noc3cc(F)ccc23)C1)c1ccc2ccccc2c1 [Compound 207]               MET
26  O=S(=O)(NC1CN(CCOc2cccc3[nH]ccc23)C1)c1ccc2ccccc2c1 [Compound 50]               MET
27  O=S(=O)(NCC1CN(CCCc2c[nH]c3ccc(Cl)cc23)C1)c1ccc2ccccc2c1 [Compound 161]               MET
28  O=S(=O)(NCC1CCN(CCCc2noc3cc(F)ccc23)C1)c1cccc(O)c1 (stereo not drawn) [Compound 254]           NOT MET
29  O=S(=O)(NCC1CN(CCOc2cccc3c2OCCO3)C1)c1cccc2ccccc12 [Compound 176]           NOT MET
